Give measured apparent Kd (screen) for each item. Keep answers brief.
Molecular target: T1, TNFR1 (Homo sapiens, UniProt P19438)
T1 chain: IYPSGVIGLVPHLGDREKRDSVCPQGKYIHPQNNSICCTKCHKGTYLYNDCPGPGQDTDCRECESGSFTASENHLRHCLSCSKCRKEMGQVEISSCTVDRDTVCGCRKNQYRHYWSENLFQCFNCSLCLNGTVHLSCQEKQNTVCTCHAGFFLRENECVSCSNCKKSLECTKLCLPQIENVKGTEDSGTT
Experiment: yeast display SC50
One number for each entry, in nM.

// worked examples, apparent Kd (screen) included
1) E44L (designed binder) MTLQELLREEALRRAEAEAFRYALELLAEKFPEQKEYLLDLAELIESQIRSLSGVDVEDVRKFLDKEWAWVKELLAEHPAELAEVEAARAARLAELRAEVEAKVAA    13.8
2) A102F (designed binder) MTLQELLREEALRRAEAEAFRYALELLAEKFPEQKEYLLDLAEEIESQIRSLSGVDVEDVRKFLDKEWAWVKELLAEHPAELAEVEAARAARLAELRAEVEFKVAA    0.653
3) L12H (designed binder) MTLQELLREEAHRRAEAEAFRYALELLAEKFPEQKEYLLDLAEEIESQIRSLSGVDVEDVRKFLDKEWAWVKELLAEHPAELAEVEAARAARLAELRAEVEAKVAA    0.956

Switching to the query record.
Need apparent Kd (screen), item E101Q (designed binder) MTLQELLREEALRRAEAEAFRYALELLAEKFPEQKEYLLDLAEEIESQIRSLSGVDVEDVRKFLDKEWAWVKELLAEHPAELAEVEAARAARLAELRAEVQAKVAA 0.718
